Below, each entry is listed with its recorded melting point.
assay_readout: melting point

> print(dat)
                                   compound                    result
1  CCC(CC)O[C@@H]1C=C(C(=O)O)C[C@H](NCc2ccc(OCc3ccc(C(=O)O)cc3Cl)cc2)[C@H]1NC(C)=O  189.3 to 192.1 °C (dec.)
2  CCC(CC)O[C@@H]1C=C(C(=O)O)C[C@H](NCc2ccc(OCc3ccc(C(=O)O)cc3)cc2)[C@H]1NC(C)=O  193.3 to 195.5 °C (dec.)
3  CCC(CC)O[C@@H]1C=C(C(=O)O)C[C@H](NCc2ccc(OCc3ccc(S(=O)(=O)O)cc3)cc2)[C@H]1NC(C)=O [Compound 18c]  244.5 to 248.7 °C (dec.)
4  CCC(CC)O[C@@H]1C=C(C(=O)O)C[C@H](NCc2ccc(OCc3ccccc3[N+](=O)[O-])cc2)[C@H]1NC(C)=O [Compound 11c]         150.8 to 152.7 °C
5  CCC(CC)O[C@@H]1C=C(C(=O)O)C[C@H](NCc2ccc(OCc3ccc([N+](=O)[O-])cc3)cc2)[C@H]1NC(C)=O [Compound 13c]  184.1 to 187.5 °C (dec.)

###

- System: A/Goose/Guangdong/SH7/2013 (H5N1)
- method: microbe, parasite or virus in culture
- Format: cell-based
- condition_context: read-out: EC50 towards influenza virus H5N1
pEC50: −log10 of the molar value.
assay_readout: pEC50

> print(dat)
                                   compound  assay.readout  numeric.result
1  CCC(CC)O[C@@H]1C=C(C(=O)O)C[C@H](N)[C@H]1NC(C)=O [OSC, oseltamivir carboxylate, reference compound]          pEC50            6.12

###

The following compounds are shown together with reported pIC50 values.
- target_desc: H1N1 NA (A/PuertoRico/8/1934) (Influenza A virus, UniProt P03468)
- Sequence (P03468 whole entry, looked up): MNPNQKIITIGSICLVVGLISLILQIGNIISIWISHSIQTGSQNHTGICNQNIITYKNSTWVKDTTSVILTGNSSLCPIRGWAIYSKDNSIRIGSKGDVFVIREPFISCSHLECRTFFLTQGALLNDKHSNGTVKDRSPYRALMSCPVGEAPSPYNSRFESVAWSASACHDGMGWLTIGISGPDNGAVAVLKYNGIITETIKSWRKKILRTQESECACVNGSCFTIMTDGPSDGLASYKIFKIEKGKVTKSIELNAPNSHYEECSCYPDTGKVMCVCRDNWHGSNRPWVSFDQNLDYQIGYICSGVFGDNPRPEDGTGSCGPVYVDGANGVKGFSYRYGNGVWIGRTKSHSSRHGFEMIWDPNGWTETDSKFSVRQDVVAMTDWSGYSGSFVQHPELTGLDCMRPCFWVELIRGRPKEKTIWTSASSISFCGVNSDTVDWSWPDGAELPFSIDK
- method: biochemical
pIC50: −log10 of the molar value.
assay_readout: pIC50

> print(dat)
                                   compound  numeric.result
1  CCC(CC)O[C@@H]1C=C(C(=O)O)C[C@H](NCc2ccc(OCc3ccc(B(O)O)cc3)cc2)[C@H]1NC(C)=O            7.35
2  CCC(CC)O[C@@H]1C=C(C(=O)O)C[C@H](NCc2ccc(OCc3ccc(S(N)(=O)=O)cc3)cc2)[C@H]1NC(C)=O [Compound 17c]            7.57
3  CCC(CC)O[C@@H]1C=C(C(=O)O)C[C@H](NCc2ccc(OCc3ccc(C(=O)O)cc3)cc2)[C@H]1NC(C)=O            6.22
4  CCC(CC)O[C@@H]1C=C(C(=O)O)C[C@H](NCc2ccc(OCc3cccc(S(N)(=O)=O)c3)cc2)[C@H]1NC(C)=O [Compound 16c]            6.05
5  CCC(CC)O[C@@H]1C=C(C(=O)O)C[C@H](NCc2ccc(OCc3ccccc3[N+](=O)[O-])cc2)[C@H]1NC(C)=O [Compound 11c]            5.94
6  CCC(CC)O[C@@H]1C=C(C(=O)O)C[C@H](NCc2ccc(OCc3cccc([N+](=O)[O-])c3)cc2)[C@H]1NC(C)=O [Compound 12c]            6.77

Values were extracted from paper PMC9571049.
